Molecular target: Beta-secretase 1 (Homo sapiens, UniProt P56817)
Sequence (P56817 whole entry): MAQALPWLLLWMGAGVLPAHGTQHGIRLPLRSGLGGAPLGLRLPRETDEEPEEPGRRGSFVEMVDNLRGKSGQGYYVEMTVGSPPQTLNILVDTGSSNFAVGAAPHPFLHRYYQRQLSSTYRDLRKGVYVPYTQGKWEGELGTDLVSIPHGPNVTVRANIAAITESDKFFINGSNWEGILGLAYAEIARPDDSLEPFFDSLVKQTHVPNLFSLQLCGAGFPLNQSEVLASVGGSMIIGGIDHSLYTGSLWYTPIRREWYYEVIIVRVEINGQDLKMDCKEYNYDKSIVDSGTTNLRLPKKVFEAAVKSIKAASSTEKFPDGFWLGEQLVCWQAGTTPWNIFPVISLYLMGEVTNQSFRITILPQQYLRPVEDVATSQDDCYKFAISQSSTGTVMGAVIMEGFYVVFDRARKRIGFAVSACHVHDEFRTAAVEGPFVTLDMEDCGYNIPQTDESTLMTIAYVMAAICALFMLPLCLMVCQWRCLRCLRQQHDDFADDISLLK
Assay: Inhibition of BACE1 at 20 ug/ml by FRET assay
quantity: inhibition
Write down the value, and be sure its unit follows.

Answered examples (4):
O=C(Cc1cccc2ccccc12)Nc1cc(Br)ccc1OCCNCCCO: 15.1%
CCOC(=O)CN(C)CCOc1ccc(Br)cc1NC(=O)Cc1cccc2ccccc12: 24.7%
CCOC(=O)C1CCN(CCOc2ccc(Br)cc2NC(=O)Cc2cccc3ccccc23)CC1: 34.8%
O=C(CCc1ccccc1)Nc1cc(Br)ccc1OCCN1CCOCC1: 13.8%

Okay, next one:
Indicate the recorded inhibition value for this compound: NCCCCCCNCCOc1ccc(Br)cc1NC(=O)Cc1cccc2ccccc12 83.7%
